- measuredOn: IDH1 wt/IDH1 R132H heterodimer (Homo sapiens (Human), UniProt O75874, R132H)
- Sequence (O75874 whole entry R132H): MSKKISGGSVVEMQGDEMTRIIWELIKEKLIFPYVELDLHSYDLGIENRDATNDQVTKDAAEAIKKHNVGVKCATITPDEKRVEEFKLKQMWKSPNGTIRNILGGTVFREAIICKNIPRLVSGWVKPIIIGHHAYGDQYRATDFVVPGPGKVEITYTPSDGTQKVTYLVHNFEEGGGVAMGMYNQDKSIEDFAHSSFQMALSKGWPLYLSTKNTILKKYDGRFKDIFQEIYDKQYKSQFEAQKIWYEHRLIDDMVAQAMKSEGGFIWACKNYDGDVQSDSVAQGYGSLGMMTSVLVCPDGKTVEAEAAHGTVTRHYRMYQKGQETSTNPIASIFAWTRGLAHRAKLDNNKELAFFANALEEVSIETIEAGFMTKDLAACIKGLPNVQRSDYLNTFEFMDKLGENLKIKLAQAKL
- Sequence (O75874 whole entry, stated change not applied): as the sequence (O75874 whole entry R132H) above, with H132R counted along it
- testName: In vitro assay for IDH1m R132H inhibitors, IDH1 wt/IDH1 R132H heterodimer, NADPH depletion (diaphorase/resazurin)
- Format: biochemical
- conditionParameters: IDH1 wt/R132H heterodimer, NADPH/NADP, not saturated; read-out: IDH1 wt/R132H NADPH/NADP IC50 not saturated
Entries and their IC50 values follow.

Consider the reported IC50 for these compounds:
compound | parameterMeasured | observedValue
CC(Nc1nc(Nc2ccnc(C3(C#N)CC3)c2)nc(-n2ccc(C(F)(F)F)n2)n1)C(F)(F)F (stereo not drawn) | IC50 | < 50 nM
N#CC1(c2cc(Nc3nc(NC4CC(F)(F)C4)nc(-n4ccc(C(F)(F)F)n4)n3)ccn2)CC1 | IC50 | < 50 nM

Now look at this one.
Task: Give reported IC50 for FC1(F)CCC(Nc2nc(NC3CCN(Cc4ccccc4)C3)nc(-c3cccc(C(F)(F)F)n3)n2)C1 (stereo not drawn) (IDH1 wt/IDH1 R132H heterodimer (Homo sapiens (Human), UniProt O75874, R132H))
Result: 100 to 1000 nM

###

- measuredOn: IDH1-R132H homodimer enzyme (Homo sapiens (Human), UniProt O75874, R132H)
- Sequence (O75874 whole entry R132H): as the sequence (O75874 whole entry R132H) above
- testName: In vitro assay IDH1-R132H homodimer, NADPH depletion assay with NADPH/NADP preincubation
- conditionParameters: 5 μM NADPH and 37.5 μM NADP
Entries and their IC50 values follow.

Task: Tell us which IC50 value is on record for N#Cc1cc(F)cc(Nc2nc(NC3CC(F)(F)C3)nc(-c3nc(C(F)(F)F)cs3)n2)c1
Result: < 50 nM

Task: Tell us which IC50 value is on record for FC1(F)CCC(Nc2nc(NC3CCC(F)(F)CC3)nc(-c3csc(C(F)(F)F)n3)n2)CC1
Result: 100 to 1000 nM

Task: Tell us which IC50 value is on record for FC(F)(F)CNc1nc(Nc2ccnc(C(F)(F)F)c2)nc(-c2cccc(C(F)(F)F)n2)n1
Result: 100 to 1000 nM

Task: Tell us which IC50 value is on record for FC1(F)CC[C@@H](Nc2nc(N[C@H]3CCC(F)(F)C3)nc(-c3cccc(C(F)(F)F)n3)n2)C1
Result: < 50 nM

Task: Tell us which IC50 value is on record for O=C(c1ccccc1)N1CCC(Nc2nc(NC3CCC(F)(F)C3)nc(-c3cccc(C(F)(F)F)n3)n2)C1 (stereo not shown)
Result: 100 to 1000 nM

Task: Tell us which IC50 value is on record for FC1(F)CCC(Nc2nc(Nc3ccnc(C(F)(F)F)c3)nc(-c3cncc(C(F)(F)F)n3)n2)CC1
Result: 50 to 100 nM

Task: Tell us which IC50 value is on record for N#Cc1cc(F)cc(Nc2nc(NC3CCC(F)(F)C3)nc(-n3ccc(C(F)(F)F)n3)n2)c1 (stereo not shown)
Result: < 50 nM

Task: Tell us which IC50 value is on record for FC1(F)CCC(Nc2nc(NC3CCC(F)(F)CC3)nc(-c3nc(C(F)(F)F)cs3)n2)CC1
Result: 100 to 1000 nM

Task: Tell us which IC50 value is on record for N#CC1(c2cc(Nc3nc(NC4CC(F)(F)C4)nc(-c4cncc(C(F)(F)F)n4)n3)ccn2)CC1
Result: < 50 nM

Task: Tell us which IC50 value is on record for FC1(F)CCC(Nc2nc(NC3CCC(F)(F)C3)nc(-c3nccc(C(F)(F)F)n3)n2)C1 (stereo not shown)
Result: 100 to 1000 nM

Task: Tell us which IC50 value is on record for FC(F)(F)c1cccc(-c2nc(NCC3CC3)cc(NCC3CC3)n2)n1
Result: 100 to 1000 nM

Task: Tell us which IC50 value is on record for CC(Nc1nc(Nc2ccnc(C(F)(F)F)c2)nc(-n2ccc(C(F)(F)F)n2)n1)C(F)(F)F (stereo not shown)
Result: 50 to 100 nM
